Provenance of the data: patent US12441726B2

# Study system: BRG-1 (Homo sapiens, UniProt P51532)
# Sequence (P51532 whole entry): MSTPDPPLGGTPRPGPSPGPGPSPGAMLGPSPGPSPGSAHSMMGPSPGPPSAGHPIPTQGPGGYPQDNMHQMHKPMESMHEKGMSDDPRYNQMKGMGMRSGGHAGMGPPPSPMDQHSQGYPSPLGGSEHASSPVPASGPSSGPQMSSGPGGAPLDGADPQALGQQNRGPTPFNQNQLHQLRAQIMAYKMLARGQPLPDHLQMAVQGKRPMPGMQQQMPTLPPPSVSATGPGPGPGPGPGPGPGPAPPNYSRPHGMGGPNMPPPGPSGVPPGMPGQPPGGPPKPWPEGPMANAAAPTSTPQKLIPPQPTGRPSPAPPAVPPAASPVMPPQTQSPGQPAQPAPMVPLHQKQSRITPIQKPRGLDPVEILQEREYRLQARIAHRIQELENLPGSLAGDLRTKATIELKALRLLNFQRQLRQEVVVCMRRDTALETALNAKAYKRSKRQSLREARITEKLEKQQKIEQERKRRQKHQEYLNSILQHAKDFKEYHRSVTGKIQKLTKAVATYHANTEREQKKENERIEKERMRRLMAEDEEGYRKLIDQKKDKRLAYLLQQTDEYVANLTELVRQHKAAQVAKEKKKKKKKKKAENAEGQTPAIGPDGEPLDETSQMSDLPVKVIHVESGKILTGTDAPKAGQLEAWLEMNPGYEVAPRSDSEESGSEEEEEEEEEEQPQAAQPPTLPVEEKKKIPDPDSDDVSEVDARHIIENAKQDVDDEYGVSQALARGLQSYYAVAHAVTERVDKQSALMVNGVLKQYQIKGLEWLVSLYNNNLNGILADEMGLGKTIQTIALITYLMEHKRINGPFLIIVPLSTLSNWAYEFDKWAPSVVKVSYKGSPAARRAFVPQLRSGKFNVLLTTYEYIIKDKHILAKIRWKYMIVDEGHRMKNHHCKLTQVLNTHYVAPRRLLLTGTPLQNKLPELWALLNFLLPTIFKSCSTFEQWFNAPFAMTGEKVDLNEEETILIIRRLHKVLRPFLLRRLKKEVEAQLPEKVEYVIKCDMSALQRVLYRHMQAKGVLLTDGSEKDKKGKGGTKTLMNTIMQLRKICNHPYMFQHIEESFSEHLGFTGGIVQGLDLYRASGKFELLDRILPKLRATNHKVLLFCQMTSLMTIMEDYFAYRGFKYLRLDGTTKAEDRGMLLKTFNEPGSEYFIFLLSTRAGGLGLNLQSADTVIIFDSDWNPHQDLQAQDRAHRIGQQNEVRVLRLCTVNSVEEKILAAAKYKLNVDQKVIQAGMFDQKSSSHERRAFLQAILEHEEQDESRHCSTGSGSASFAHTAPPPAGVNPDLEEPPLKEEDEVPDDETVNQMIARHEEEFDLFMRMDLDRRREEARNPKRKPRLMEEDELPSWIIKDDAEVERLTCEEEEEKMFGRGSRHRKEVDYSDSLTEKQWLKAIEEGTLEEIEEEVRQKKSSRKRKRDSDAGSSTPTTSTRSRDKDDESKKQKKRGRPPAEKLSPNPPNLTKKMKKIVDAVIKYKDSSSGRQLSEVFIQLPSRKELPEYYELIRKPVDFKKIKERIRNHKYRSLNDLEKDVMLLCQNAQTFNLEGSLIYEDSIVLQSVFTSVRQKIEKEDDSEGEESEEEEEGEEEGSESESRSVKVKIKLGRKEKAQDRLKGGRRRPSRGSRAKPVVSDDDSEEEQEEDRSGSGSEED
# Assay text: ATPase catalytic activity assay (ADP-Glo), BRG-1
# Reported conditions: 1 h, read-out: BRG1 Max % Inhibition, ADP-Glo, 30 nM BRG-1, 400 μM ATP
Measured endpoint: Emax (%)

Some compounds with known Emax results, for comparison:
Smiles	Quantity unit	Emax
O=C(NCc1cc(C#Cc2ccccc2)ccn1)c1ccc2c(c1)[C@@](F)(C(F)F)COC2	%	47
C[C@@]1(C#N)COCc2ccc(C(=O)NCc3cc4nc(-c5cccc(N6CCC6=O)c5)ccc4cn3)cc21	%	96
C[C@@]1(C#N)COCc2ccc(C(=O)NCc3cc4cc(-c5nccc(N6CCC6)n5)cnc4cn3)cc21	%	47

A: COc1ccc(C)cc1-c1ccc2cnc(CNC(=O)c3ccc4c(c3)[C@](C)(C#N)COC4)cc2n1
B: COc1nn(C2COC2)cc1-c1ccc2cnc(CNC(=O)c3ccc4c(c3)[C@](C)(C#N)COC4)cc2n1
input: Given the listed items, does A or B have the lesser reported Emax? Output the label that corresponds to your choice.
output: A
(A: 37%, B: 90%)

P: C[C@@]1(C#N)COCc2ccc(C(=O)NCc3cc4nc(-c5cncc(N6CCC6)c5)ccc4cn3)cc21
Q: C[C@@]1(C#N)COCc2ccc(C(=O)NCc3cc4cc(N5CCn6ncc(C(F)F)c6C5)cnc4cn3)cc21
input: Given the listed items, does P or Q have the lesser reported Emax? Output the label that corresponds to your choice.
output: Q
(Q: 47%, P: 80%)

====

# Study system: BRG-1 (Homo sapiens, UniProt P51532)
# Assay text: ATPase catalytic activity assay (ADP-Glo), BRG-1
Measured endpoint: IC50

Compound	Recorded value
Cn1ccc2c(-c3ccc4cnc(CNC(=O)c5ccc6c(c5)[C@](C)(C#N)COC6)cc4n3)cc(F)cc21	0.1 to 0.5 µM
C[C@@]1(C#N)COCc2ccc(C(=O)NCc3cc4c(cn3)CCN(c3ccccn3)C4)cc21	> 1 µM
Cc1cncc(-c2ccc3cnc(CNC(=O)c4ccc5c(c4)[C@](C)(C#N)COC5)cc3n2)n1	0.5 to 1 µM
C[C@@]1(C#N)COCc2ccc(C(=O)NCc3cc(N4CCC(c5ccccc5)C4)ccn3)cc21 (stereo partly shown)	> 1 µM
COc1nn(C)cc1-c1ccc2cnc(CNC(=O)c3cnc4c(c3)[C@](C)(F)COC4)cc2n1	0.5 to 1 µM

input: Please look up its IC50: CCC(C)(O)c1cccc(-c2ccc3cnc(CNC(=O)c4ccc5c(c4)[C@](C)(F)COC5)cc3n2)n1 (stereo partly shown)
output: 0.5 to 1 µM

input: Please look up its IC50: "C[C@@]1(C#N)COCc2ccc(C(=O)NCc3cc4cc(N5CCn6ncc(C(F)F)c6C5)cnc4cn3)cc21"
output: > 1 µM

====

The following molecules are listed with their measured IC50 values.
# Study system: BRM (Homo sapiens, UniProt P51531)
# Sequence (P51531 whole entry): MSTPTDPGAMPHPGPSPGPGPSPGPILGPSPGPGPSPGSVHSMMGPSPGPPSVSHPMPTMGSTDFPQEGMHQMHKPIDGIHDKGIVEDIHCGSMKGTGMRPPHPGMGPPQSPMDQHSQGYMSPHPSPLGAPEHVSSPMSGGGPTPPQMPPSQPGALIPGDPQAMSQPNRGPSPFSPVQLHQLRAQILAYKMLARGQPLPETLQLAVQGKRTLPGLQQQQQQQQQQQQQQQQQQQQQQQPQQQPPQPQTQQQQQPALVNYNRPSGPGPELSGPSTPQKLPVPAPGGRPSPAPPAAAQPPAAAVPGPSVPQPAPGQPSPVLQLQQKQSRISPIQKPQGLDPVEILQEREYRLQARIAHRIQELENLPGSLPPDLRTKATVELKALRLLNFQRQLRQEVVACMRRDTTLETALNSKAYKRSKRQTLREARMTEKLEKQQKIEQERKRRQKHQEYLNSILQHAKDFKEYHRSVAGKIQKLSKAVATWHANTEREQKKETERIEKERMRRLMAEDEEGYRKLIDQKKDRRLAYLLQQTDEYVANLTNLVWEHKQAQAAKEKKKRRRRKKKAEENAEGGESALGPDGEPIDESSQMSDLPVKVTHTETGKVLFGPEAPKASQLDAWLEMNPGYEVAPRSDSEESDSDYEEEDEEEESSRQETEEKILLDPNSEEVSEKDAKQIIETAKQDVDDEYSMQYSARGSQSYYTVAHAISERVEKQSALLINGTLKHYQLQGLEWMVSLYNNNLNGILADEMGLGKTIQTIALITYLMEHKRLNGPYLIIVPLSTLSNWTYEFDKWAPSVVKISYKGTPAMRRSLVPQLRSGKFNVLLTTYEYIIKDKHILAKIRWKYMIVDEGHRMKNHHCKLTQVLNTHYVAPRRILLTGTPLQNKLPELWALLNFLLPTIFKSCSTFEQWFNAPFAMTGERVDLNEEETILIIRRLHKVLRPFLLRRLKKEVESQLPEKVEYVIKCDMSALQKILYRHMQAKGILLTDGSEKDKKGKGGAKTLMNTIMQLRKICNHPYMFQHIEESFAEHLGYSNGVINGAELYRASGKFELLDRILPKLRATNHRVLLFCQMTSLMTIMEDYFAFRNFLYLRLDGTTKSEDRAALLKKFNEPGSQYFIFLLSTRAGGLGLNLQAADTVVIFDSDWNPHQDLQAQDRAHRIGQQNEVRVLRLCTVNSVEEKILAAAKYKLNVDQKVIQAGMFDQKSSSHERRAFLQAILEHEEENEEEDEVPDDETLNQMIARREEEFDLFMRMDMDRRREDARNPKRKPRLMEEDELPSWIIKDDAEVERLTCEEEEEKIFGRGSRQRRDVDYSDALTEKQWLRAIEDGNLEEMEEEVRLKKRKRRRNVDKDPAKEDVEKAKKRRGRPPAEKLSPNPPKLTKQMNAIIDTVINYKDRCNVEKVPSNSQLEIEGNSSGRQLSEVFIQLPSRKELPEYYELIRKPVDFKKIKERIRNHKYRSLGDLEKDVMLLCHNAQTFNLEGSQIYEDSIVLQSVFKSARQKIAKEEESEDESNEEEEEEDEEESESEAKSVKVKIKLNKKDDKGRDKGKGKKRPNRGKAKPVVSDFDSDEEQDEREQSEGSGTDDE
# Assay text: ATPase catalytic activity assay (ADP-Glo), BRM
# Reported conditions: BRM ATPase: IC50 (uM), 30 nM BRM, 400 μM ATP

Molecule	Study system	IC50
COc1nn(C)cc1-c1nc2cc(CNC(=O)c3ccc4c(c3)[C@](C)(C#N)COC4)ncc2s1 [Compound 274]	BRM (Homo sapiens, UniProt P51531)	0.1 to 0.5 µM
Cn1nc(-c2ccc3cnc(CNC(=O)c4ccc5c(c4)[C@](C)(C#N)COC5)cc3n2)cc1C(F)F [Compound 162]	BRM (Homo sapiens, UniProt P51531)	0.1 to 0.5 µM

input: Please look up its IC50: C[C@@]1(CO)COCc2ccc(C(=O)NCc3cc4nc(-c5ccccc5)sc4cn3)cc21 [Compound 115]
output: > 1 µM

input: Please look up its IC50: COc1nn(C)cc1-c1ccc2nnc(CNC(=O)c3ccc4c(c3)[C@](C)(C#N)COC4)cc2c1 [Compound 329]
output: < 0.1 µM

input: Please look up its IC50: O=C(NCc1cc2nc(-c3cncc(C4CC4)n3)ccc2cn1)c1cnc2c(c1)C(O)(C(F)F)COC2 (stereo not shown) [Compound 246]
output: 0.1 to 0.5 µM

input: Please look up its IC50: O=C(NCc1cc2nc(-c3cncc(N4CCC4)n3)ccc2cn1)c1cc(F)c2c(c1)[C@@](F)(C(F)F)COC2 [Compound 352]
output: < 0.1 µM

input: Please look up its IC50: C[C@@]1(C#N)COCc2ccc(C(=O)NCc3cc4cc(-c5nccc(N6CCC6)n5)ccc4nn3)cc21 [Compound 335]
output: < 0.1 µM

====

# Study system: UniProt:P51532
# Assay text: ATPase catalytic activity assay (ADP-Glo), BRG-1
pIC50: −log10 of the molar value.
Measured endpoint: pIC50

Some compounds with known pIC50 results, for comparison:
Compound	Recorded value
Cc1cc(-c2ccc3cnc(CNC(=O)c4ccc5c(c4)[C@](C)(C#N)COC5)cc3n2)n[nH]1 [Compound 264]	6.00 to 6.30
C[C@@]1(F)COCc2ccc(C(=O)NCc3cc4nc(-c5ccnc(N6CCC6)n5)cnc4cn3)cc21 [Compound 190]	6.30 to 7.00
Cn1ncc2c1CN(c1ccc3cnc(CNC(=O)c4ccc5c(c4)[C@](C)(C#N)COC5)cc3n1)CC2 [Compound 457]	6.00 to 6.30
C[C@@]1(F)COCc2ccc(C(=O)NCc3cc4nc(-c5ccccc5)ccc4nn3)cc21 [Compound 277]	6.00 to 6.30
C[C@@]1(C#N)COCc2ccc(C(=O)NCc3cc4c(cn3)CCN(c3cccc(N5CCC5)n3)C4)cc21 [Compound 402]	6.00 to 6.30

input: # query: pIC50 | item Cc1cnc(CNC(=O)c2ccc3c(c2)[C@](C)(C#N)COC3)cc1C#Cc1ccccc1 [Compound 15] | system: UniProt:P51532
output: < 6.00

input: # query: pIC50 | item C[C@@]1(C#N)COCc2c(F)cc(C(=O)NCc3cc4cc(-c5cncc(N6CCC6)n5)ccc4cn3)cc21 [Compound 270] | system: UniProt:P51532
output: > 7.00

input: # query: pIC50 | item CC(C)(O)c1cccc(-c2ccc3cnc(CNC(=O)c4ccc5c(c4)[C@](C)(C#N)COC5)cc3n2)n1 [Compound 410] | system: UniProt:P51532
output: 6.00 to 6.30

input: # query: pIC50 | item COc1cc(F)cc2c1CCN(c1ccnc(CNC(=O)c3ccc4c(c3)[C@](C)(C#N)COC4)c1)C2 [Compound 51] | system: UniProt:P51532
output: 6.30 to 7.00

input: # query: pIC50 | item C[C@H](O)c1cccc(-c2ccc3cnc(CNC(=O)c4ccc5c(c4)[C@](C)(F)COC5)cc3n2)n1 [Compound 213] | system: UniProt:P51532
output: 6.00 to 6.30

input: # query: pIC50 | item Cn1c(C2CC2)cc2c(-c3ccc4cnc(CNC(=O)c5ccc6c(c5)[C@](C)(C#N)COC6)cc4n3)cccc21 [Compound 135] | system: UniProt:P51532
output: > 7.00

input: # query: pIC50 | item COc1cc(-c2ccc3cnc(CNC(=O)c4ccc5c(c4)[C@](C)(C#N)COC5)cc3n2)c(F)cn1 [Compound 446] | system: UniProt:P51532
output: < 6.00

input: # query: pIC50 | item C[C@@]1(C#N)COCc2ccc(C(=O)NCc3cc(OCc4cccc(N5CCC5)c4)ccn3)cc21 [Compound 40] | system: UniProt:P51532
output: < 6.00

input: # query: pIC50 | item C[C@@]1(C#N)COCc2ccc(C(=O)NCc3cc4nc(-c5cccc(N6CCCC6=O)n5)ccc4cn3)cc21 [Compound 378] | system: UniProt:P51532
output: 6.30 to 7.00

input: # query: pIC50 | item COc1nn(C)cc1-c1nc2cc(CNC(=O)c3ccc4c(c3)[C@](C)(C#N)COC4)ncc2s1 [Compound 274] | system: UniProt:P51532
output: 6.00 to 6.30

====

# Study system: BRM (Homo sapiens)
# Assay text: ATPase catalytic activity assay (ADP-Glo), BRM
# Reported conditions: BRM ATPase: IC50 (uM), 30 nM BRM, 400 μM ATP
Measured endpoint: IC50

Molecule	IC50
CCOC(=O)C12CCC(CC1)N(c1ccc3cnc(CNC(=O)c4ccc5c(c4)[C@](C)(C#N)COC5)cc3n1)C2	0.1 to 0.5 µM
C[C@@]1(C#N)COCc2ccc(C(=O)NCc3cc4nc(-c5ccnc(N6CCC6)c5)ccc4cn3)cc21	< 0.1 µM
C[C@@]1(C#N)COCc2ccc(C(=O)NCc3cc4cc(N5CCn6ncc(C(F)F)c6C5)ccc4nn3)cc21	0.1 to 0.5 µM
COC(=O)N1CCC2CC2(c2ccc3cnc(CNC(=O)c4ccc5c(c4)[C@](C)(C#N)COC5)cc3n2)C1 (stereo partly drawn)	0.1 to 0.5 µM

input: Please look up its IC50: "C[C@@]1(C#N)COCc2ccc(C(=O)NCc3cc4nc(C5CCOCC5)ccc4cn3)cc21"
output: > 1 µM

input: Please look up its IC50: "C[C@@]1(C#N)COCc2ccc(C(=O)NCc3cc4nc(-c5cn(C6COC6)nc5C(F)F)ccc4cn3)cc21"
output: 0.1 to 0.5 µM

input: Please look up its IC50: "COc1ccccc1N1CCc2cnc(CNC(=O)c3ccc4c(c3)[C@](C)(C#N)COC4)cc2C1"
output: 0.1 to 0.5 µM

input: Please look up its IC50: "C[C@@]1(C#N)COCc2ccc(C(=O)NCc3cc(N4Cc5ccccc5C4)ccn3)cc21"
output: 0.1 to 0.5 µM

input: Please look up its IC50: "COc1ccc([C@H]2C[C@@H](c3ccnc(CNC(=O)c4ccc5c(c4)[C@](C)(C#N)COC5)c3)C2)cc1"
output: 0.1 to 0.5 µM

input: Please look up its IC50: C[C@@]1(C#N)COCc2ccc(C(=O)NCc3cc(C4CCN(c5cccc(C(F)F)n5)C4)ccn3)cc21 (stereo partly drawn)
output: 0.1 to 0.5 µM

input: Please look up its IC50: "C[C@@]1(C#N)COCc2ccc(C(=O)NCc3cc4nc(-c5cn(C6COC6)nc5CC(F)F)ccc4cn3)cc21"
output: 0.1 to 0.5 µM

input: Please look up its IC50: "COc1cccc(C#Cc2ccnc(CNC(=O)c3ccc4c(c3)[C@](C)(C#N)COC4)c2)c1"
output: 0.1 to 0.5 µM

input: Please look up its IC50: "CNC(=O)c1ccc(-c2ccc3cnc(CNC(=O)c4ccc5c(c4)[C@](C)(C#N)COC5)cc3n2)cc1"
output: 0.1 to 0.5 µM

input: Please look up its IC50: "C[C@@]1(C#N)COCc2ccc(C(=O)NCc3cc(N4CC5(CCN(c6ccccc6)C5)C4)ccn3)cc21"
output: > 1 µM

input: Please look up its IC50: "C[C@@]1(C#N)COCc2ccc(C(=O)NCc3cc4nc(-c5cncc(N6CCC6)n5)ccc4cn3)cc21"
output: < 0.1 µM
